- System: UACC-62
- ASSAY METHOD TEXT: NCI tumour cell line growth inhibition, 48 h
Activity calls are given as the source filed them. Rule as the data show it: active = GI50 up to about 1.1 µM and inactive = higher.
PROPERTY LABEL: GI50

COc1ccc2c(c1)CC[C@@H]1C2CC[C@]2(C)C(=O)N(CCN3CCCC3)C(=O)CC12 (stereo partly drawn)
18.2 µM (inactive)
CCSC(SCC)c1cc2c(cc1Br)OCO2
28.5 µM (inactive)
CCCCCCCCCCCCOP(=O)(O)OP(=O)(O)OCC1OC(n2ccc(N)nc2=O)CC1O (stereo not drawn)
> 100 µM (inactive)
COS(=O)c1cc(Cl)cc(Cl)c1OC(=O)CSSCC(=O)Oc1c(Cl)cc(Cl)cc1S(=O)OC (stereo not drawn)
6.97 µM (inactive)
CC(=O)CC(=O)Nc1ccc2ccccc2c1
> 100 µM (inactive)
Cc1ccnc2c1c(=O)c1ccccc1n2C
16.2 µM (inactive)

INPUT: State the recorded GI50 for this entry: `CC(=O)c1c(N=[N+]=[N-])c2cccc3c2n(c1=O)CCC3`
OUTPUT: 16.5 µM (inactive)

INPUT: State the recorded GI50 for this entry: `Cc1cc2nc3c(C)c4ccccc4c(C)n3c2cc1C`
OUTPUT: 4.14 µM (inactive)

INPUT: State the recorded GI50 for this entry: `O=c1sc2c(s1)-c1sc(=O)sc1SS2`
OUTPUT: > 100 µM (inactive)

INPUT: State the recorded GI50 for this entry: `COc1cc(Cc2nccc3cc(OC)c(OC)cc23)c(/N=N/N(C)C)cc1OC`
OUTPUT: 13.2 µM (inactive)

INPUT: State the recorded GI50 for this entry: `CC(=O)O[C@@H](c1nccn1Cc1ccccc1)[C@H]1OC(C)(C)O[C@@H]1[C@H]1COC(C)(C)O1`
OUTPUT: > 100 µM (inactive)

INPUT: State the recorded GI50 for this entry: `CC(C)CCc1c(Cl)nc(Cl)nc1Cl`
OUTPUT: 12 µM (inactive)

INPUT: State the recorded GI50 for this entry: `C[Si](C)(C)/C=C\CCO`
OUTPUT: > 100 µM (inactive)

All figures here come from ChEMBL document CHEMBL1201862.
